assay: Equilibrium solubility of the compound at pH 8 to 10; assay type: physicochemical; details: buffer
measured.quantity: solubility thermodynamic

Query block: Requested field: solubility thermodynamic. Item: Cc1ccc(Cc2cc3c(=O)n([C@H]4CCCC[C@@H]4O)cnc3c3ccccc23)cn1
Result block: < 1 µg/mL

====

assay: Equilibrium solubility of the compound in simulated gastric fluid using crystalline compound; assay type: physicochemical
measured.quantity: solubility thermodynamic (µg/mL)
Respond numerically; units are µg/mL and should not be typed.

Query block: Requested field: solubility thermodynamic. Item: Cc1ccc(Cc2cc3c(=O)n([C@H]4CCCC[C@@H]4O)cnc3c3ccccc23)cn1.O=C(O)/C=C/C(=O)O
Result block: 2300
